assay: yeast display, Sf9 membrane polyspecificity reagent, FACS + sequencing; frameworks hold sequencing errors

MACROMOLECULE_SEQUENCE	polyreactivity (PSR sort gate)
QVQLVESGGGLVQAGGSLRLSCAASGSTFQYNVMGWYRPAPGKERELVATISYSSGRTYYADSVKGRFTISRDNAKNTVYLQMNSLKPEDTAVYYCAAAVRLYFWTSAYKYGYWGQGTQVTVSS	high polyreactivity
QVQLVESGGGLVQAGGSLRLSCAASGFTFDYYAMGWYRQAPGKERELVAAISWSGSTTYYADSVKGRFTISRDNAKNTVYLQMNSLKPEDTAVYYCATNLDRPFDYWGQGTQVTVSS	high polyreactivity

###

test: yeast display, Sf9 membrane polyspecificity reagent, FACS + sequencing; frameworks hold sequencing errors
QUANTITY: polyreactivity (PSR sort gate)

MACROMOLECULE_SEQUENCE	QUANTITY	ASSAY_VALUE
QVQLVESGGGLEQAGGSLRLSCAASGLTFSVYAMGWYRQAPGKERELVAGITSSGGDTYYADSVKGRLTISRDNAKNTVYLQMNSLKPEDTAVYYCNAKYRTFVSKHDYWGQGTQVTVSS	polyreactivity (PSR sort gate)	low polyreactivity
QVQLVESGGGLVQAGGSLRLSCAASGSIFAYYAMGWYRQAPGKERELVAAISSGGSTNYADSVKGRFTISRDNAKNPVYLQMNSLKPEDTAVYDCAKRSYYGLTYYSWGQGTQVTVSS	polyreactivity (PSR sort gate)	low polyreactivity

###

assay: yeast display, Sf9 membrane polyspecificity reagent, FACS + sequencing; frameworks hold sequencing errors
QUANTITY: polyreactivity (PSR sort gate)

Worked examples, 5 sequences total:
MACROMOLECULE_SEQUENCE	QUANTITY	ASSAY_VALUE
QVQLVESGGGLVQAGGSLRLSCAASGSTFAANAMGWDRQAPGKERELVAAITSGGGSTYYADSVKGRFTISRDNAKNTVYLQMNSLKPEDTAVYYCAALQSHGVDYDYWGQGSQVTVSS	polyreactivity (PSR sort gate)	low polyreactivity
QVQLVESGGGLVQAGGSLRLSCAASGRIFRSNGMGWYRQAPGKERELVAAITYRGGNTYYADSVKGRFTISRDNAKNTVYFQMNSLKPEDTAVYYCANQGVRRHYGYDYWGQGTQVTVSS	polyreactivity (PSR sort gate)	high polyreactivity
QVQLVESGGGLVQAGGTLRLSCAASGIIFGVYAMGWYRQAPGKERELVAAIDGNGSSTYYADSVKGRFTISRDTAKNTVYLQMNSLKPEDTAVYYCPAGYWSYLYYWYDFDYWGQGTQVTVSS	polyreactivity (PSR sort gate)	low polyreactivity
QVQLVESGGGLVQAGGSLRLSCAASGRTFRDNAMGWYRQAPGKERELVAAISSGDRTNYADSVKGRFTISRDNAKNTVYLQMNSLKPEETAVYYCAAVRYNSRVSTTPSEMYYWGQGTQVTVSS	polyreactivity (PSR sort gate)	low polyreactivity
QVQLVESGGGLVQAGGSLRLSCAASGIIFSSYAMGWYRQAPGKERELVAAITSGGNTNYADSVKGRFTISRDNAKNTVYLQMNSLKTEDISVYYCNADTSFVWLAWHQYGFGYWGQGTQVTLSS	polyreactivity (PSR sort gate)	low polyreactivity

Q) Fill in: polyreactivity (PSR sort gate) of `QVQLVESGGGLVQAGGSLRLSCAASGSIFPYYAMGWYRQAPGKERELVAAITLSGGRTYYADSVKGRFTISRDNAKNTVYLQMNSLKPEDTAVYYCNVYRSKKRYGWGEDDYWGQCTQVTVSS` is ___
A) high polyreactivity

Q) Fill in: polyreactivity (PSR sort gate) of `LVQLVESGGGLVQAGGSLRLSCAASGSTFSVNALGWYRQAPGNERELVAAITYSGGSTYYADSVKGRFTISRDTAKNTVYLQMNSLKPEDTAVYYCATRVWFYKSRGGYRERDYWGQGTQVTVSS` is ___
A) high polyreactivity

Q) Fill in: polyreactivity (PSR sort gate) of `QVQLVESGGGLVQAGGSLRLSCAPSGFTFRIYAMGWYRQAPGKERELVAAISWAGGSTFYADSVKGRFTISRDNAKNTVYLQLNSLKPEDTAVYYCAADTAFNYDYWGQGTQVTVSS` is ___
A) low polyreactivity

Q) Fill in: polyreactivity (PSR sort gate) of `QVQLVESGGVLVQAGGSLRLICAASVRNFSTNSMGWYRQAPGKERELVASISFRGGRTYYADSVKGRFTISRDNAKNTVYLQMNSRKPEDNAVYYCVSGTKRTGYGYWGQGTQVTVSS` is ___
A) high polyreactivity

Q) Fill in: polyreactivity (PSR sort gate) of `QVQLVESGGGLVQAGGSLRLSCAASGRTIWVYAMGWYRQAPGKERELVAAIRWSAGTTYYADSVKGRFTISRDNAKNTVYLQMNSLKPEDTAVYYCAADASSRYGVLEVDYWGQGTQVTVSS` is ___
A) high polyreactivity

The values you see were collected from the nanobody polyreactivity screen of Harvey et al. (2022).
